Data provenance is patent US7262212B2.

MEASUREMENT_TYPE: melting point

See these solved cases before continuing.
COMPOUND: CC1(CN2CCN(C(=O)Nc3ccc(C(F)(F)F)cc3)CC2)Cn2cc([N+](=O)[O-])nc2O1 (centres unmarked)
melting point: 216 to 217 °C

COMPOUND: O=[N+]([O-])c1cn2c(n1)OC1(CCN(c3ccc(Cl)cc3)CC1)C2
melting point: 242 to 245 °C

Hey, quick one: what's melting point for each of these?
1. CC(C)NC(=O)N1CCN(CC2(C)Cn3cc([N+](=O)[O-])nc3O2)CC1 (centres unmarked)
2. CC1(CCCN2CCN(c3nc4ccccc4o3)CC2)Cn2cc([N+](=O)[O-])nc2O1 (centres unmarked)

Reply:
["175 to 176.3 °C", "172 to 174.4 °C"]

Task item: Hello, please tell me recorded melting point for this one: CC1(CN2CCN(C(=O)Cc3ccc(Cl)cc3)CC2)Cn2cc([N+](=O)[O-])nc2O1 (centres unmarked)
Reply: 184 to 187 °C
